# Test system: K-562 (leukaemia)
# TEST_DESCRIPTION: Growth inhibition in cell culture, K-562
# Type: cell-based, human
# MEASUREMENT_CONTEXT: K-562 (leukaemia)

MOLECULE | IC-50 (ng/mL)
C/C(=C\c1csc(C)n1)[C@@H]1C/C=C\CCC[C@H](C)[C@H](O)[C@@H](C)C(=O)C(C)(C)[C@@H](O)CC(=O)O1 | 20
C/C1=C/C[C@@H](/C(C)=C/c2csc(C)n2)OC(=O)C[C@H](O)C(C)(C)C(=O)[C@H](C)[C@@H](O)[C@@H](C)CCC1 | 10
C/C(=C\c1csc(C)n1)[C@@H]1C[C@@H]2O[C@]2(C)CCC[C@H](C)[C@H](O)[C@@H](C)C(=O)C(C)(C)[C@@H](O)CC(=O)O1 [Epothilone B, epothilone B, reference compound] | 0.3
C/C(=C\c1csc(C)n1)[C@@H]1C[C@@H]2O[C@@H]2CCC[C@H](C)[C@H](O)[C@@H](C)C(=O)C(C)(C)[C@@H](O)CC(=O)O1 [Epothilone A, epothilone A, reference compound] | 0.3

###

# IC-50 per record follows
# System: U-937 (lymphoma)
# TEST_DESCRIPTION: Growth inhibition in cell culture, U-937
# Type: cell-based, human
# MEASUREMENT_CONTEXT: U-937 (lymphoma)

MOLECULE | IC-50
C/C(=C\c1csc(C)n1)[C@@H]1C/C=C\CCC[C@H](C)[C@H](O)[C@@H](C)C(=O)C(C)(C)[C@@H](O)CC(=O)O1 | 10 ng/mL
C/C(=C\c1csc(C)n1)[C@@H]1C[C@@H]2O[C@]2(C)CCC[C@H](C)[C@H](O)[C@@H](C)C(=O)C(C)(C)[C@@H](O)CC(=O)O1 [Epothilone B, epothilone B, reference compound] | 0.2 ng/mL
C/C1=C/C[C@@H](/C(C)=C/c2csc(C)n2)OC(=O)C[C@H](O)C(C)(C)C(=O)[C@H](C)[C@@H](O)[C@@H](C)CCC1 | 3 ng/mL
C/C(=C\c1csc(C)n1)[C@@H]1C[C@@H]2O[C@@H]2CCC[C@H](C)[C@H](O)[C@@H](C)C(=O)C(C)(C)[C@@H](O)CC(=O)O1 [Epothilone A, epothilone A, reference compound] | 0.2 ng/mL

###

# System: KB-3.1 (carcinoma of the cervix)
# TEST_DESCRIPTION: Growth inhibition in cell culture, KB-3.1
# Assay type: cell-based, human
# MEASUREMENT_CONTEXT: KB-3.1 (carcinoma of the cervix)
# IC-50 per record follows
MEASUREMENT_TYPE: IC-50 (ng/mL)

MOLECULE | TARGET_OF_ASSAY | UNIT_SYMBOL | OBSERVED_RESULT
C/C1=C/C[C@@H](/C(C)=C/c2csc(C)n2)OC(=O)C[C@H](O)C(C)(C)C(=O)[C@H](C)[C@@H](O)[C@@H](C)CCC1 | KB-3.1 (carcinoma of the cervix) | ng/mL | 12
C/C(=C\c1csc(C)n1)[C@@H]1C/C=C\CCC[C@H](C)[C@H](O)[C@@H](C)C(=O)C(C)(C)[C@@H](O)CC(=O)O1 | KB-3.1 (carcinoma of the cervix) | ng/mL | 20
C/C(=C\c1csc(C)n1)[C@@H]1C[C@@H]2O[C@]2(C)CCC[C@H](C)[C@H](O)[C@@H](C)C(=O)C(C)(C)[C@@H](O)CC(=O)O1 [Epothilone B, epothilone B, reference compound] | KB-3.1 (carcinoma of the cervix) | ng/mL | 0.6
C/C(=C\c1csc(C)n1)[C@@H]1C[C@@H]2O[C@@H]2CCC[C@H](C)[C@H](O)[C@@H](C)C(=O)C(C)(C)[C@@H](O)CC(=O)O1 [Epothilone A, epothilone A, reference compound] | KB-3.1 (carcinoma of the cervix) | ng/mL | 1

###

# Time up to the half-maximal polymerization of the control, measurement y per record follows
# TARGET_OF_ASSAY: purified tubulin from pigs' brain (Sus scrofa, UniProt P02554)
# Construct: purified tubulin from pigs' brain; from tissue; host or cells: pig brain
# Sequence (P02554 whole entry): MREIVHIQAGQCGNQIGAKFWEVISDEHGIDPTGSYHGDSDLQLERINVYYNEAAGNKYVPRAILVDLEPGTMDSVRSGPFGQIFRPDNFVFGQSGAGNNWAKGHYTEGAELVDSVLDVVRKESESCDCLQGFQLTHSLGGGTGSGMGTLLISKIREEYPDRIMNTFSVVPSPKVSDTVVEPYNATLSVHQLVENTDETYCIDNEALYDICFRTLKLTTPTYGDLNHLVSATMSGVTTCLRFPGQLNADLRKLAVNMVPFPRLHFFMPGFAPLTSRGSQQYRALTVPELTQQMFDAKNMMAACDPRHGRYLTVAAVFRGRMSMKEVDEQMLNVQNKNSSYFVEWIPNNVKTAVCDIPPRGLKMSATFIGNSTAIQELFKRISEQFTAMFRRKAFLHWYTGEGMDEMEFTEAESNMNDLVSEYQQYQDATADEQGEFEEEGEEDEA
# Sequence (P02550 whole entry partner): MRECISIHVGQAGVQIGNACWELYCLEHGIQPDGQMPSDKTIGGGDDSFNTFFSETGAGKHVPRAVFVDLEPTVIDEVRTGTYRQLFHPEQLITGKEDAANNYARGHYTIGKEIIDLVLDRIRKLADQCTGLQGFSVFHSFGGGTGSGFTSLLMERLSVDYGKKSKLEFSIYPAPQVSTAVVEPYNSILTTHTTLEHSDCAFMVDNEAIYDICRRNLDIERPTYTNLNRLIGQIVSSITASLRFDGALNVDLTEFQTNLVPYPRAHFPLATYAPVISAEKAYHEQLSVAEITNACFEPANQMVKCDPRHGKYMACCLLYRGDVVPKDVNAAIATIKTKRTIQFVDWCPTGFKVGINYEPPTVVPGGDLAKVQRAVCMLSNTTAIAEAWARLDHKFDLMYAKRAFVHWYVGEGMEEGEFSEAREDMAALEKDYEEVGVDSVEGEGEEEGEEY
# Format: biochemical, pig
# MEASUREMENT_CONTEXT: independent experiment y; 0.9 mg of tubulin/ml, 1 μM sample concentration
# Protocol: The epothilones according to the invention were tested with cell cultures (Table 2) and for promotion of polymerization (Table 3). The polymerization test is an in vitro test using purified tubulin from pigs' brain. Evaluation is carried out photometrically.
MEASUREMENT_TYPE: Time up to the half-maximal polymerization of the control, measurement y (s)

COMPOUND | OBSERVED_RESULT
C/C(=C\c1csc(C)n1)[C@@H]1C/C=C\CCC[C@H](C)[C@H](O)[C@@H](C)C(=O)C(C)(C)[C@@H](O)CC(=O)O1 | 95
C/C1=C/C[C@@H](/C(C)=C/c2csc(C)n2)OC(=O)C[C@H](O)C(C)(C)C(=O)[C@H](C)[C@@H](O)[C@@H](C)CCC1 | 120
C/C(=C\c1csc(C)n1)[C@@H]1C[C@@H]2O[C@@H]2CCC[C@H](C)[C@H](O)[C@@H](C)C(=O)C(C)(C)[C@@H](O)CC(=O)O1 [Epothilone A, epothilone A, reference compound] | 70
C/C(=C\c1csc(C)n1)[C@@H]1C[C@@H]2O[C@]2(C)CCC[C@H](C)[C@H](O)[C@@H](C)C(=O)C(C)(C)[C@@H](O)CC(=O)O1 [Epothilone B, epothilone B, reference compound] | 25

###

# TARGET_OF_ASSAY: purified tubulin from pigs' brain (Sus scrofa, UniProt P02554)
# Construct: purified tubulin from pigs' brain; from tissue; host or cells: pig brain
# Type: biochemical, pig
# MEASUREMENT_CONTEXT: independent experiment x; 0.9 mg of tubulin/ml, 1 μM sample concentration
MEASUREMENT_TYPE: Time up to the half-maximal polymerization of the control, measurement x (s)

MOLECULE | UNIT_SYMBOL | OBSERVED_RESULT
C/C1=C/C[C@@H](/C(C)=C/c2csc(C)n2)OC(=O)C[C@H](O)C(C)(C)C(=O)[C@H](C)[C@@H](O)[C@@H](C)CCC1 [Epothilone D] | s | 73
C/C(=C\c1csc(C)n1)[C@@H]1C[C@@H]2O[C@]2(C)CCC[C@H](C)[C@H](O)[C@@H](C)C(=O)C(C)(C)[C@@H](O)CC(=O)O1 [Epothilone B, epothilone B, reference compound] | s | 23
C/C(=C\c1csc(C)n1)[C@@H]1C[C@@H]2O[C@@H]2CCC[C@H](C)[C@H](O)[C@@H](C)C(=O)C(C)(C)[C@@H](O)CC(=O)O1 [Epothilone A, epothilone A, reference compound] | s | 60
C/C(=C\c1csc(C)n1)[C@@H]1C/C=C\CCC[C@H](C)[C@H](O)[C@@H](C)C(=O)C(C)(C)[C@@H](O)CC(=O)O1 [Epothilone C] | s | 76

###

# IC-50 per record follows
# Test system: HL-60 (leukaemia)
# TEST_DESCRIPTION: Growth inhibition in cell culture, HL-60
# Type: cell-based, human
# MEASUREMENT_CONTEXT: HL-60 (leukaemia)
# Description: The epothilones according to the invention were tested with cell cultures (Table 2) and for promotion of polymerization (Table 3).

COMPOUND | IC-50 / ng/mL
C/C(=C\c1csc(C)n1)[C@@H]1C[C@@H]2O[C@@H]2CCC[C@H](C)[C@H](O)[C@@H](C)C(=O)C(C)(C)[C@@H](O)CC(=O)O1 [Epothilone A, epothilone A, reference compound] | 0.2
C/C(=C\c1csc(C)n1)[C@@H]1C[C@@H]2O[C@]2(C)CCC[C@H](C)[C@H](O)[C@@H](C)C(=O)C(C)(C)[C@@H](O)CC(=O)O1 [Epothilone B, epothilone B, reference compound] | 0.2
C/C1=C/C[C@@H](/C(C)=C/c2csc(C)n2)OC(=O)C[C@H](O)C(C)(C)C(=O)[C@H](C)[C@@H](O)[C@@H](C)CCC1 [Epothilone D] | 3
C/C(=C\c1csc(C)n1)[C@@H]1C/C=C\CCC[C@H](C)[C@H](O)[C@@H](C)C(=O)C(C)(C)[C@@H](O)CC(=O)O1 [Epothilone C] | 10

###

# TARGET_OF_ASSAY: purified tubulin from pigs' brain (Sus scrofa, UniProt P02554)
# Construct: purified tubulin from pigs' brain; from tissue; host or cells: pig brain
# Type: biochemical, pig
# MEASUREMENT_CONTEXT: average of experiments w-z; 0.9 mg of tubulin/ml, 1 μM sample concentration; control 190 s
# Experimental: The epothilones according to the invention were tested with cell cultures (Table 2) and for promotion of polymerization (Table 3). The polymerization test is an in vitro test using purified tubulin from pigs' brain. Evaluation is carried out photometrically.
MEASUREMENT_TYPE: Time up to the half-maximal polymerization of the control, Agent [s]

COMPOUND | OBSERVED_RESULT
C/C(=C\c1csc(C)n1)[C@@H]1C[C@@H]2O[C@]2(C)CCC[C@H](C)[C@H](O)[C@@H](C)C(=O)C(C)(C)[C@@H](O)CC(=O)O1 [Epothilone B, epothilone B, reference compound] | 26 s
C/C1=C/C[C@@H](/C(C)=C/c2csc(C)n2)OC(=O)C[C@H](O)C(C)(C)C(=O)[C@H](C)[C@@H](O)[C@@H](C)CCC1 | 106 s
C/C(=C\c1csc(C)n1)[C@@H]1C/C=C\CCC[C@H](C)[C@H](O)[C@@H](C)C(=O)C(C)(C)[C@@H](O)CC(=O)O1 | 94 s
C/C(=C\c1csc(C)n1)[C@@H]1C[C@@H]2O[C@@H]2CCC[C@H](C)[C@H](O)[C@@H](C)C(=O)C(C)(C)[C@@H](O)CC(=O)O1 [Epothilone A, epothilone A, reference compound] | 74 s
